Reference source: the supplement of paper PMC7877785

- protocol-description: self-splicing fitness, log relative to wild type (ln ratio); higher = more splicing; Tetrahymena group I intron in knt gene, E. coli kanamycin selection, DiMSum; sequences stand for … in CUCUCU…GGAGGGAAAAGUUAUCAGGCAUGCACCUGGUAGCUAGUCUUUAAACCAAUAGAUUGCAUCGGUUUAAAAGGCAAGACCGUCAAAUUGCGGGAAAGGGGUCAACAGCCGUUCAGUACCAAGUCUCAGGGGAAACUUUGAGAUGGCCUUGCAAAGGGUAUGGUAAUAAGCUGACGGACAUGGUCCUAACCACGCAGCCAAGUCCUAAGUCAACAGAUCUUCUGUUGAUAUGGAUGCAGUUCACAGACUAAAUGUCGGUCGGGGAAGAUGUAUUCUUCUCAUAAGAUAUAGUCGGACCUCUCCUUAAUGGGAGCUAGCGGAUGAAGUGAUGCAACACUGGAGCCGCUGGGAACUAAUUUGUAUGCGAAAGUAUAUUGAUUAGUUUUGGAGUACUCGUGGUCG;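 note: selection with 25 µg/mL kanamycin versus none on LB agar overnight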
- assay-setup: 37 °C
self-splicing fitness (ln) listing for selected sequences.
quantity: self-splicing fitness (ln)

[[record]]
polymer_sequence = "GCGUAGCAAUAUUACGGCAG"
value_observed = -2.13

[[record]]
polymer_sequence = "ACACAGCAAUAUUACGGGUA"
value_observed = -1.26

[[record]]
polymer_sequence = "UACCAGCAAUAUUACGUCGA"
value_observed = -0.0658

[[record]]
polymer_sequence = "AAAUAGCAAUAUUACGCUCG"
value_observed = -0.925

[[record]]
polymer_sequence = "GACGAGCAAUAUUACGACAC"
value_observed = -1.55

[[record]]
polymer_sequence = "GUCAAGCAAUAUUACGCAUC"
value_observed = -1.74

[[record]]
polymer_sequence = "CGCGAGCAAUAUUACGUCCG"
value_observed = 1.32

[[record]]
polymer_sequence = "ACUGAGCAAUAUUACGAGGG"
value_observed = -2.21

[[record]]
polymer_sequence = "AUAGAGCAAUAUUACGUGAA"
value_observed = -1.07


* * *

- protocol-description: self-splicing fitness, log relative to wild type (ln ratio); higher = more splicing; Tetrahymena group I intron in knt gene, E. coli kanamycin selection, DiMSum; sequences stand for … in CUCUCU…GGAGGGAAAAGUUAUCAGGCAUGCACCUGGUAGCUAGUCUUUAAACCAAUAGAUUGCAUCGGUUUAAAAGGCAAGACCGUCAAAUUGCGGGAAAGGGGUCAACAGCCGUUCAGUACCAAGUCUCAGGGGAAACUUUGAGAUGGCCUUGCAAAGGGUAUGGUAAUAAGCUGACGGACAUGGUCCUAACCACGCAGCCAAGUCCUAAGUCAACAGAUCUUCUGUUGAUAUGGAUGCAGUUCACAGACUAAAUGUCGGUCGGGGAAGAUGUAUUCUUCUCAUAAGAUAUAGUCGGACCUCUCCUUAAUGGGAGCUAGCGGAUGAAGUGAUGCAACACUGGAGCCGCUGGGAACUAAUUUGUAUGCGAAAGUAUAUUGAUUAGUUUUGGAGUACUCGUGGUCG
- assay-setup: 37 °C
self-splicing fitness (ln) listing for selected sequences.
quantity: self-splicing fitness (ln)

[[record]]
polymer_sequence = "GGCGAGCAAUAUUACGAAGU"
value_observed = -1.21

[[record]]
polymer_sequence = "GGAAAGCAAUAUUACGGGUA"
value_observed = -1.32

[[record]]
polymer_sequence = "GAUAAGCAAUAUUACGGGAA"
value_observed = -1.99

[[record]]
polymer_sequence = "UAUGAGCAAUAUUACGAUUG"
value_observed = -1.11

[[record]]
polymer_sequence = "CCUUAGCAAUAUUACGUAUA"
value_observed = -3.25

[[record]]
polymer_sequence = "ACUGAGCAAUAUUACGCGGC"
value_observed = -2.28

[[record]]
polymer_sequence = "GAGAAGCAAUAUUACGUGGG"
value_observed = -2.29

[[record]]
polymer_sequence = "CAGUAGCAAUAUUACGCGGA"
value_observed = -1.64

[[record]]
polymer_sequence = "UAAGAGCAAUAUUACGGCCA"
value_observed = -1.48

[[record]]
polymer_sequence = "ACAGAGCAAUAUUACGCUGU"
value_observed = -2.69

[[record]]
polymer_sequence = "UGACAGCAAUAUUACGAGUU"
value_observed = -2.86


* * *

- protocol-description: self-splicing fitness, log relative to wild type (ln ratio); higher = more splicing; Tetrahymena group I intron in knt gene, E. coli kanamycin selection, DiMSum; sequences stand for … in CUCUCU…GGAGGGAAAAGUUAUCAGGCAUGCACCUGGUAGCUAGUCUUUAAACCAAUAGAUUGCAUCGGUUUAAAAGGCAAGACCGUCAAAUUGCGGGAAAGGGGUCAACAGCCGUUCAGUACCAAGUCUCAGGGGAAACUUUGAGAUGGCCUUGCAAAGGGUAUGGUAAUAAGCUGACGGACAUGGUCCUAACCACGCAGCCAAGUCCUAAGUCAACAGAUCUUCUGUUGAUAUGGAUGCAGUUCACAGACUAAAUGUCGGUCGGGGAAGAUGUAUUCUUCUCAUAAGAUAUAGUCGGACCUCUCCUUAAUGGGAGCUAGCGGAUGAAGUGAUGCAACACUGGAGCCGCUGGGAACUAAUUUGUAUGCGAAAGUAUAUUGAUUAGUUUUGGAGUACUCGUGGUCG
- assay-setup: 30 °C
quantity: self-splicing fitness (ln)

[[record]]
polymer_sequence = "ACCGAGCAAUAUUACGAGAU"
value_observed = -2.96

[[record]]
polymer_sequence = "ACACAGCAAUAUUACGAAUU"
value_observed = -3.01

[[record]]
polymer_sequence = "AGGCAGCAAUAUUACGUCCU"
value_observed = -3.02

[[record]]
polymer_sequence = "AAGGAGCAAUAUUACGGGCC"
value_observed = -2.98

[[record]]
polymer_sequence = "GAACAGCAAUAUUACGGUUC"
value_observed = -3


* * *

- protocol-description: self-splicing fitness, log relative to wild type (ln ratio); higher = more splicing; Tetrahymena group I intron in knt gene, E. coli kanamycin selection, DiMSum; sequences stand for … in CUCUCU…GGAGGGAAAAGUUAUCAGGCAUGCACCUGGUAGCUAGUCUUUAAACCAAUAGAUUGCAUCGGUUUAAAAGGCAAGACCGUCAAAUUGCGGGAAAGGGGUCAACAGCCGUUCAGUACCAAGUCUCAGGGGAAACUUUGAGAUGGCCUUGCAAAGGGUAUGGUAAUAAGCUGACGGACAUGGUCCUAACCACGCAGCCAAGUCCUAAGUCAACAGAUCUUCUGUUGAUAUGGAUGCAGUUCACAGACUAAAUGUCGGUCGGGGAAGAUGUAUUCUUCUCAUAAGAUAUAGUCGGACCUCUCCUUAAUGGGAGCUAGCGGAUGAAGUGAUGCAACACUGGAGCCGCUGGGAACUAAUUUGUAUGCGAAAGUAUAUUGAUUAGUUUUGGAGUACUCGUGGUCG
- assay-setup: 30 °C
self-splicing fitness (ln) listing for selected sequences.
quantity: self-splicing fitness (ln)

[[record]]
polymer_sequence = "CCGCAGCAAUAUUACGACUC"
quantity = "self-splicing fitness (ln)"
value_observed = -3.06

[[record]]
polymer_sequence = "UGUCAGCAAUAUUACGGCAU"
quantity = "self-splicing fitness (ln)"
value_observed = -3.01

[[record]]
polymer_sequence = "AACGAGCAAUAUUACGCCCG"
quantity = "self-splicing fitness (ln)"
value_observed = -1.98

[[record]]
polymer_sequence = "GCCAAGCAAUAUUACGGUAC"
quantity = "self-splicing fitness (ln)"
value_observed = -2.01

[[record]]
polymer_sequence = "GUAUAGCAAUAUUACGCACG"
quantity = "self-splicing fitness (ln)"
value_observed = -1.99

[[record]]
polymer_sequence = "UAUGAGCAAUAUUACGGAUA"
quantity = "self-splicing fitness (ln)"
value_observed = -2

[[record]]
polymer_sequence = "GUUCAGCAAUAUUACGUUAC"
quantity = "self-splicing fitness (ln)"
value_observed = -1.98


* * *

- protocol-description: self-splicing fitness, log relative to wild type (ln ratio); higher = more splicing; Tetrahymena group I intron in knt gene, E. coli kanamycin selection, DiMSum; sequences stand for … in CUCUCU…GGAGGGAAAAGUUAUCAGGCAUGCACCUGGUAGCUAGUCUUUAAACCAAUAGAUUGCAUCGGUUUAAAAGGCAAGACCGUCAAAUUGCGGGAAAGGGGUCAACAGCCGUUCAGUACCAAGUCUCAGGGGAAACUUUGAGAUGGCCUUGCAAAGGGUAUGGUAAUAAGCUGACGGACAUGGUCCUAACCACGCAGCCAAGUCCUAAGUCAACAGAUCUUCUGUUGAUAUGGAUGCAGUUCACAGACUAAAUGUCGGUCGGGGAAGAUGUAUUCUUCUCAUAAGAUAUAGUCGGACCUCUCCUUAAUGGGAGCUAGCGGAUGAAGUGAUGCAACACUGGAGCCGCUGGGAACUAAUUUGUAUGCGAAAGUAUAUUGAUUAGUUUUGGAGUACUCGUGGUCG
- assay-setup: 37 °C
quantity: self-splicing fitness (ln)

[[record]]
polymer_sequence = "UAUAAGCAAUAUUACGUAGU"
value_observed = -2.07

[[record]]
polymer_sequence = "AAAAAGCAAUAUUACGCAGA"
value_observed = -1.86

[[record]]
polymer_sequence = "GUCGAGCAAUAUUACGUUAA"
value_observed = -2.06

[[record]]
polymer_sequence = "UUGGAGCAAUAUUACGGCUA"
value_observed = -1.21

[[record]]
polymer_sequence = "GGCAAGCAAUAUUACGUGAU"
value_observed = -0.169

[[record]]
polymer_sequence = "UAUGAGCAAUAUUACGCUCG"
value_observed = -2.2

[[record]]
polymer_sequence = "AAUAAGCAAUAUUACGGCUA"
value_observed = 0.0369

[[record]]
polymer_sequence = "GCGAAGCAAUAUUACGUGUU"
value_observed = -2.07

[[record]]
polymer_sequence = "AGACAGCAAUAUUACGCGCU"
value_observed = -1.63

[[record]]
polymer_sequence = "AGUGAGCAAUAUUACGACCA"
value_observed = -1.52

[[record]]
polymer_sequence = "CCGUAGCAAUAUUACGUGGC"
value_observed = -2.73

[[record]]
polymer_sequence = "AAAUAGCAAUAUUACGCCCC"
value_observed = 0.0438

[[record]]
polymer_sequence = "GUCAAGCAAUAUUACGGGUG"
value_observed = -2.73

[[record]]
polymer_sequence = "AUCUAGCAAUAUUACGUCAU"
value_observed = -0.955

[[record]]
polymer_sequence = "UGCCAGCAAUAUUACGAAAC"
value_observed = -2.42

[[record]]
polymer_sequence = "ACGGAGCAAUAUUACGCGCU"
value_observed = -1.17

[[record]]
polymer_sequence = "ACUGAGCAAUAUUACGAGUU"
value_observed = -2.91

[[record]]
polymer_sequence = "UGGAAGCAAUAUUACGGCAA"
value_observed = 0.0721

[[record]]
polymer_sequence = "GUCCAGCAAUAUUACGUCAG"
value_observed = -2.16

[[record]]
polymer_sequence = "ACCCAGCAAUAUUACGCAGA"
value_observed = -0.231

[[record]]
polymer_sequence = "UAAAAGCAAUAUUACGUUCU"
value_observed = -1.13

[[record]]
polymer_sequence = "UCGGAGCAAUAUUACGACAC"
value_observed = -1.19

[[record]]
polymer_sequence = "AGACAGCAAUAUUACGUUAU"
value_observed = -2.06

[[record]]
polymer_sequence = "CCCUAGCAAUAUUACGGCGA"
value_observed = -2.19

[[record]]
polymer_sequence = "UGUGAGCAAUAUUACGGUGC"
value_observed = -1.77

[[record]]
polymer_sequence = "UGCGAGCAAUAUUACGAGUG"
value_observed = -2.32

[[record]]
polymer_sequence = "GCGUAGCAAUAUUACGCGGG"
value_observed = -2.75

[[record]]
polymer_sequence = "CGUGAGCAAUAUUACGGCGA"
value_observed = -0.845

[[record]]
polymer_sequence = "GUAAAGCAAUAUUACGUAGC"
value_observed = -0.771

[[record]]
polymer_sequence = "CAUUAGCAAUAUUACGUAGC"
value_observed = -2.4

[[record]]
polymer_sequence = "ACUAAGCAAUAUUACGCGUG"
value_observed = -0.684

[[record]]
polymer_sequence = "GUAGAGCAAUAUUACGAGAG"
value_observed = -2.05

[[record]]
polymer_sequence = "UAGAAGCAAUAUUACGGUCU"
value_observed = 0.318

[[record]]
polymer_sequence = "CACAAGCAAUAUUACGCGGU"
value_observed = -2.04

[[record]]
polymer_sequence = "UAGAAGCAAUAUUACGGGAA"
value_observed = -2.3

[[record]]
polymer_sequence = "UUAGAGCAAUAUUACGUAGA"
value_observed = -1.41

[[record]]
polymer_sequence = "CCCGAGCAAUAUUACGGACG"
value_observed = -0.706

[[record]]
polymer_sequence = "CUAAAGCAAUAUUACGUCUU"
value_observed = -3.24

[[record]]
polymer_sequence = "ACAAAGCAAUAUUACGGGAU"
value_observed = -0.492

[[record]]
polymer_sequence = "ACAGAGCAAUAUUACGCAAG"
value_observed = -2.33

[[record]]
polymer_sequence = "GCCAAGCAAUAUUACGCACU"
value_observed = -0.196

[[record]]
polymer_sequence = "CUGGAGCAAUAUUACGACGG"
value_observed = -3.09

[[record]]
polymer_sequence = "GAUCAGCAAUAUUACGCCGG"
value_observed = -1.41

[[record]]
polymer_sequence = "CUUGAGCAAUAUUACGCAUC"
value_observed = -2.75

[[record]]
polymer_sequence = "UGAUAGCAAUAUUACGGCUG"
value_observed = -0.149

[[record]]
polymer_sequence = "CCUUAGCAAUAUUACGGCCG"
value_observed = -0.27

[[record]]
polymer_sequence = "GGUCAGCAAUAUUACGCGUA"
value_observed = -0.158

[[record]]
polymer_sequence = "GGCCAGCAAUAUUACGCGGU"
value_observed = -2.53

[[record]]
polymer_sequence = "CGUCAGCAAUAUUACGACGG"
value_observed = -0.516

[[record]]
polymer_sequence = "UCAGAGCAAUAUUACGCGCG"
value_observed = -1.79

[[record]]
polymer_sequence = "CAGAAGCAAUAUUACGGUAU"
value_observed = -2.47

[[record]]
polymer_sequence = "CGAUAGCAAUAUUACGGUAU"
value_observed = -1.79

[[record]]
polymer_sequence = "UAUCAGCAAUAUUACGGGUC"
value_observed = -1.3

[[record]]
polymer_sequence = "CCAAAGCAAUAUUACGUUUG"
value_observed = -1.43

[[record]]
polymer_sequence = "UCCUAGCAAUAUUACGCGUA"
value_observed = -1.53

